- Test summary: solubility test in solvents at 1 to 100 mM
- Format: physicochemical
- Test parameters: DMSO, 27 °C, organic solvent or mixture, thermodynamic from solid, DMSO; concentration 1 mM; warmed to 50° C. and cooled to 27° C.; read-out: solubility
Measured quantity: solubility

Molecule: CC(C)(C)[Si](OCCn1c(=O)[nH]c(=O)c2c(=O)[nH]c(=O)[nH]c21)(c1ccccc1)c1ccccc1 [PPT]
Data value: > 1 mM

Turning now to a further molecule:
Task: Param item = O=c1[nH]c(=O)c2c(=O)[nH]c(=O)[nH]c2[nH]1 [PPT(H), reference compound] ; retrieve measured solubility.
Result: < 100 mM

----------
- Test summary: solubility test in solvents at 1 to 100 mM
- Type: physicochemical
- Test parameters: DMSO, 27 °C, organic solvent or mixture, thermodynamic from solid, DMSO; concentration 100 mM; warmed to 50° C. and cooled to 27° C.; read-out: solubility
Measured quantity: solubility

Compound: O=c1[nH]c(=O)c2c(=O)[nH]c(=O)[nH]c2[nH]1 [PPT(H), reference compound]
Data value: < 100 mM

Turning now to a further compound:
Task: Param item = CC(C)(C)[Si](OCCn1c(=O)[nH]c(=O)c2c(=O)[nH]c(=O)[nH]c21)(c1ccccc1)c1ccccc1 ; retrieve measured solubility.
Result: > 1 mM

----------
- Test summary: solubility test in solvents at 1 to 100 mM
- Format: physicochemical
- Test parameters: phosphate buffer, 27 °C, pH 7, aqueous buffer, thermodynamic from solid, phosphate buffer 100 mM pH 7.0; concentration 1 mM; warmed to 50° C. and cooled to 27° C.; read-out: solubility
Measured quantity: solubility

Molecule: CC(C)(C)[Si](OCCn1c(=O)[nH]c(=O)c2c(=O)[nH]c(=O)[nH]c21)(c1ccccc1)c1ccccc1 [PPT]
solubility: > 1 mM

Task: Param item = O=c1[nH]c(=O)c2c(=O)[nH]c(=O)[nH]c2[nH]1 [PPT(H), reference compound] ; retrieve measured solubility.
Result: < 100 mM

----------
Answer each item with its documented solubility.
- Test summary: solubility test in solvents at 1 to 100 mM
- Type: physicochemical
- Test parameters: TBE buffer, 27 °C, pH 7, aqueous buffer, thermodynamic from solid, TBE buffer 100 mM pH 7.0; concentration 100 mM; warmed to 50° C. and cooled to 27° C.; read-out: solubility

Molecule: O=c1[nH]c(=O)c2c(=O)[nH]c(=O)[nH]c2[nH]1 [PPT(H), reference compound]
solubility: < 100 mM

Turning now to a further molecule:
Task: Param item = CC(C)(C)[Si](OCCn1c(=O)[nH]c(=O)c2c(=O)[nH]c(=O)[nH]c21)(c1ccccc1)c1ccccc1 [PPT] ; retrieve measured solubility.
Result: < 100 mM

----------
- Test summary: solubility test in solvents at 1 to 100 mM
- Assay type: physicochemical
- Test parameters: TBE buffer, 27 °C, pH 7, aqueous buffer, thermodynamic from solid, TBE buffer 100 mM pH 7.0; concentration 1 mM; warmed to 50° C. and cooled to 27° C.; read-out: solubility
Measured quantity: solubility

Compound: CC(C)(C)[Si](OCCn1c(=O)[nH]c(=O)c2c(=O)[nH]c(=O)[nH]c21)(c1ccccc1)c1ccccc1
solubility: > 1 mM

Task: Param item = O=c1[nH]c(=O)c2c(=O)[nH]c(=O)[nH]c2[nH]1 [PPT(H), reference compound] ; retrieve measured solubility.
Result: < 100 mM

----------
- Test summary: solubility test in solvents at 1 to 100 mM
- Format: physicochemical
- Test parameters: phosphate buffer, 27 °C, pH 7, aqueous buffer, thermodynamic from solid, phosphate buffer 100 mM pH 7.0; concentration 100 mM; warmed to 50° C. and cooled to 27° C.; read-out: solubility
Answer each item with its documented solubility.

Molecule: CC(C)(C)[Si](OCCn1c(=O)[nH]c(=O)c2c(=O)[nH]c(=O)[nH]c21)(c1ccccc1)c1ccccc1
solubility: < 100 mM

Task: Param item = O=c1[nH]c(=O)c2c(=O)[nH]c(=O)[nH]c2[nH]1 [PPT(H), reference compound] ; retrieve measured solubility.
Result: < 100 mM

----------
- Test summary: solubility test in solvents at 1 to 100 mM
- Format: physicochemical
- Test parameters: water, 27 °C, water, thermodynamic from solid, water; concentration 1 mM; warmed to 50° C. and cooled to 27° C.; read-out: solubility
Answer each item with its documented solubility.

Molecule: CC(C)(C)[Si](OCCn1c(=O)[nH]c(=O)c2c(=O)[nH]c(=O)[nH]c21)(c1ccccc1)c1ccccc1
Data value: > 1 mM

Turning now to a further molecule:
Task: Param item = O=c1[nH]c(=O)c2c(=O)[nH]c(=O)[nH]c2[nH]1 [PPT(H), reference compound] ; retrieve measured solubility.
Result: < 100 mM
